Target Or System: Amine oxidase [flavin-containing] B (Rattus norvegicus)
Sequence (P19643 whole entry): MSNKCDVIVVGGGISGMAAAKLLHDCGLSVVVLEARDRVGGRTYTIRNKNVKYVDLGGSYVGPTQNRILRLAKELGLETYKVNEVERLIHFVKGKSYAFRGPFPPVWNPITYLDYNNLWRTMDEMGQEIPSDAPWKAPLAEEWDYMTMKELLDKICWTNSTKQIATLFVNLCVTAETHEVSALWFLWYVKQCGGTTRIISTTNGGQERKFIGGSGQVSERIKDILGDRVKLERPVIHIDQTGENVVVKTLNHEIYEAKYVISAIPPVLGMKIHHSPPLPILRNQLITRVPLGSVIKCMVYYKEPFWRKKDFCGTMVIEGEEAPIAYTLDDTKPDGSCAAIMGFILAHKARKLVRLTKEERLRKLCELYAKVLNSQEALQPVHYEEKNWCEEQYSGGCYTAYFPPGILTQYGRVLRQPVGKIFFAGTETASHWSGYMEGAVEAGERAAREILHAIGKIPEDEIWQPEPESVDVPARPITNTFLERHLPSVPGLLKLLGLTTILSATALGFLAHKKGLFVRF
Measure Name: pIC50
Answer as the number alone; pIC50 is minus log10 of concentration in mol/L.

Tested system Amine oxidase [flavin-containing] B (Rattus norvegicus); pIC50 recorded for "Cc1cc2c(nn1)-c1cc(OCc3ccccc3)ccc1C2=O" was 6.77
